Test system: Mcl-1
TEST_DESCRIPTION: Western blotting, semiquantitative analysis of Mcl-1 protein bands
Type: cell-based
MEASUREMENT_CONTEXT: 6 h; control = 1; tumor cells
Please go through the items and note down their concentration of the protein bands (semiquantitative, normalized), Mcl-1.
Answers are plain numbers.

Name the recorded concentration of the protein bands (semiquantitative, normalized), Mcl-1 for O=C1N=C2C(=C1NCCCc1ccccc1)c1cccc3cccc2c13 .
0.29

Would you mind telling me what concentration of the protein bands (semiquantitative, normalized), Mcl-1 value was observed for CC(C)Cc1ccc(Oc2ccc3c4c(cccc24)C2=NC(=O)C(C#N)=C23)cc1 ?
0.42

Recorded concentration of the protein bands (semiquantitative, normalized), Mcl-1 of O=C1N=C2C(=C1NCCCc1ccccc1)c1ccc(N3CCSCC3)c3cccc2c13 , please.
0.21

State the recorded concentration of the protein bands (semiquantitative, normalized), Mcl-1 for this entry: CC(C)c1ccc(Oc2ccc3c4c(cccc24)C2=NC(=O)C(C#N)=C23)cc1
0.37

Batch request: concentration of the protein bands (semiquantitative, normalized), Mcl-1 per item, same order as input.
1. CCCCNC1=C2C(=NC1=O)c1cccc3c(N4CCSCC4)ccc2c13
2. CCCCNC1=C2C(=NC1=O)c1cccc3c(Sc4ccc(Br)cc4)ccc2c13
3. CCC(C)c1ccc(Oc2ccc3c4c(cccc24)C2=NC(=O)C(C#N)=C23)cc1 (centres unmarked)
4. CC(C)c1ccc(Sc2ccc3c4c(cccc24)C2=NC(=O)C(C#N)=C23)cc1

[0.29, 0.32, 0.29, 0.29]

----------
System: Bcl-2
TEST_DESCRIPTION: Western blotting, semiquantitative analysis of Bcl-2 protein bands
Assay type: cell-based
MEASUREMENT_CONTEXT: 18 h; control = 1; tumor cells
Exercise: state measured concentration of the protein bands (semiquantitative, normalized), Bcl-2 for each of the molecules provided.

Worked cases, answers included:
What value of concentration of the protein bands (semiquantitative, normalized), Bcl-2 has been reported for the following molecule? CCCCCCNC1=C2C(=NC1=O)c1cccc3cccc2c13 [Compound 2]
0.50

Requested read-out: concentration of the protein bands (semiquantitative, normalized), Bcl-2. Entry: CCC(C)c1ccc(Oc2ccc3c4c(cccc24)C2=NC(=O)C(C#N)=C23)cc1 (stereo not shown) [Compound 13]
0.42

I am curious: what concentration of the protein bands (semiquantitative, normalized), Bcl-2 value has been reported for O=C1N=C2C(=C1NCCCc1ccccc1)c1ccc(Sc3ccc(Br)cc3)c3cccc2c13 [Compound 8] ?
0.42

// switching to the query molecule
Need concentration of the protein bands (semiquantitative, normalized), Bcl-2 of CCCCNC1=C2C(=NC1=O)c1cccc3c(N4CCSCC4)ccc2c13 [Compound 9] , thanks.
0.49

----------
Give measured melting point for each item. Keep answers brief.

Endpoint output: melting point of CCCCNC1=C2C(=NC1=O)c1cccc3c(Oc4ccc(C(C)C)cc4)ccc2c13 . Value?
243 to 244 °C

Consider the compound CCCCN(C)C1=C2C(=NC1=O)c1cccc3cccc2c13 and give its measured melting point.
245 to 246 °C

Fill in the blank: the reported melting point of CCOc1ccc2c3c(cccc13)C1=NC(=O)C(NCCCc3ccccc3)=C12 is ____.
250 to 251 °C

Please turn your attention to the following entry.
What value of measured melting point is listed for O=C1N=C2C(=C1NCCCc1ccccc1)c1cccc3cccc2c13 ?
252 to 253 °C
